- measured_target: NAD-dependent protein deacetylase sirtuin-1 (Homo sapiens)
- Sequence (whole entry): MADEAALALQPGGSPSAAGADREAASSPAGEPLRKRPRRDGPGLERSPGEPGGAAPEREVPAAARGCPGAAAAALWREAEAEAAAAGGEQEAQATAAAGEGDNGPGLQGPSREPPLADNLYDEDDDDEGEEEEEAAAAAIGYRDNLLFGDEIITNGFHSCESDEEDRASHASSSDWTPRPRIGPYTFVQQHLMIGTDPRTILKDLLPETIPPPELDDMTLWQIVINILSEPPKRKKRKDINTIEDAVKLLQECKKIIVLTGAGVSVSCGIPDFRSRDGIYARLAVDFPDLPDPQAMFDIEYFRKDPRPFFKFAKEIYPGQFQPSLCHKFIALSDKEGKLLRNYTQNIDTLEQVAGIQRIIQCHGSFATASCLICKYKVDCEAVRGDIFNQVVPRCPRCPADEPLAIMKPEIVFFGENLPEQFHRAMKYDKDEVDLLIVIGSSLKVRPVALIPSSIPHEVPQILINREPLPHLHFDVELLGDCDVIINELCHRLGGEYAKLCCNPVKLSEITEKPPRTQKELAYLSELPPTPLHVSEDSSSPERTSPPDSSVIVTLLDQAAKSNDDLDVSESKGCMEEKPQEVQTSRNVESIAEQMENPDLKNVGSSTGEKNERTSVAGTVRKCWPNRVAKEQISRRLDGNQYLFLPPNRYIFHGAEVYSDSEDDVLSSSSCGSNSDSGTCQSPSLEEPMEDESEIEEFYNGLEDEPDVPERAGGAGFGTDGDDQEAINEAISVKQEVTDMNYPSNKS
- test_summary: Inhibition of human recombinant SIRT1 using KI-177 as substrate at 5 uM after 30 mins by fluorescence assay
Activity calls are given as the source filed them. No cut-off for these calls is given here.
Outcome codes: active, inactive

| smiles_string | discrete_label |
| --- | --- |
| O=C(NCCSSCCNC(=O)/C(Cc1cn(Cc2ccc(Br)cc2)c2ccc(Br)cc12)=N/O)/C(Cc1cn(Cc2ccc(Br)cc2)c2ccc(Br)cc12)=N/O | active |
| O=C(NCCCCCCCCNC(=O)/C(Cc1c[nH]c2ccc(Br)cc12)=N/O)/C(Cc1c[nH]c2ccc(Br)cc12)=N/O | active |
| O=C(NCCCCSSCCCCNC(=O)/C(Cc1c[nH]c2ccc(Br)cc12)=N/O)/C(Cc1c[nH]c2ccc(Br)cc12)=N/O | inactive |
| O=C(NCCSSCCNC(=O)/C(Cc1c[nH]c2ccccc12)=N/O)/C(Cc1c[nH]c2ccccc12)=N/O | active |

###

- measured_target: NAD-dependent protein deacetylase sirtuin-1 (Homo sapiens) (UniProt Q96EB6)
- test_summary: Inhibition of SIRT1 in human U937 cells assessed as H3 acetylation on lysine K56 at 5 uM after 24 hrs by Western blot analysis
- Assay type: cell-based
- reported_conditions: U-937
Active and inactive are the calls of the source. The calls are words filed in the database; no cut-off is given here.

| smiles_string | inhibition |
| --- | --- |
| Cn1cc(C/C(=N\O)C(=O)NCCSSCCNC(=O)/C(Cc2cn(C)c3ccc(Br)cc23)=N/O)c2cc(Br)ccc21 | Active |
| O=C(NCCCCSSCCCCNC(=O)/C(Cc1c[nH]c2ccc(Br)cc12)=N/O)/C(Cc1c[nH]c2ccc(Br)cc12)=N/O | Active |
| O=C(NCCSSCCNC(=O)/C(Cc1cn(Cc2ccc(Br)cc2)c2ccc(Br)cc12)=N/O)/C(Cc1cn(Cc2ccc(Br)cc2)c2ccc(Br)cc12)=N/O | Active |
| O=C(NCCCCCCCCNC(=O)/C(Cc1c[nH]c2ccc(Br)cc12)=N/O)/C(Cc1c[nH]c2ccc(Br)cc12)=N/O | Active |
| CSCCNC(=O)/C(Cc1c[nH]c2ccc(Br)cc12)=N/O | Active |
| COCCNC(=O)/C(Cc1c[nH]c2ccc(Br)cc12)=N/O | inactive |
| O=C(NCCO)/C(Cc1c[nH]c2ccc(Br)cc12)=N/O | inactive |
